conditions: in propylene glycol, 293.15 K

- sample.smiles: "O=C(Nc1ccc(F)cc1F)c1cccnc1Oc1cccc(C(F)(F)F)c1"
  solubility (mole fraction): "9.02e-05"

====

details: in ethylene glycol, 293.15 K

- sample.smiles: "O=C(Nc1ccc(F)cc1F)c1cccnc1Oc1cccc(C(F)(F)F)c1"
  solubility (mole fraction): "2.71e-05"

====

settings: in water, 293.15 K

- sample.smiles: "O=C(Nc1ccc(F)cc1F)c1cccnc1Oc1cccc(C(F)(F)F)c1"
  solubility (mole fraction): "3.33e-07"

====

conditions: in ethylene glycol, 323.15 K

- sample.smiles: "O=C(Nc1ccc(F)cc1F)c1cccnc1Oc1cccc(C(F)(F)F)c1"
  solubility (mole fraction): "7.49e-05"

====

conditions: in ethanol, 308.15 K

- sample.smiles: "O=C(Nc1ccc(F)cc1F)c1cccnc1Oc1cccc(C(F)(F)F)c1"
  solubility (mole fraction): 0.00111

====

conditions: in water, 283.15 K

- sample.smiles: "O=C(Nc1ccc(F)cc1F)c1cccnc1Oc1cccc(C(F)(F)F)c1"
  solubility (mole fraction): "2.02e-07"

====

conditions: in DMF, 318.15 K
readout: solubility (mole fraction)

- sample.smiles: "O=C(Nc1ccc(F)cc1F)c1cccnc1Oc1cccc(C(F)(F)F)c1"
  result.number: 0.00255

====

conditions: in water, 288.15 K
readout: solubility (mole fraction)

- sample.smiles: "O=C(Nc1ccc(F)cc1F)c1cccnc1Oc1cccc(C(F)(F)F)c1"
  result.number: "2.68e-07"

====

conditions: in DMF, 303.15 K

- sample.smiles: "O=C(Nc1ccc(F)cc1F)c1cccnc1Oc1cccc(C(F)(F)F)c1"
  solubility (mole fraction): 0.00153

====

settings: in ethylene glycol, 288.15 K

- sample.smiles: "O=C(Nc1ccc(F)cc1F)c1cccnc1Oc1cccc(C(F)(F)F)c1"
  solubility (mole fraction): "2.25e-05"

====

settings: in propylene glycol, 298.15 K
readout: solubility (mole fraction)

- sample.smiles: "O=C(Nc1ccc(F)cc1F)c1cccnc1Oc1cccc(C(F)(F)F)c1"
  readout: "solubility (mole fraction)"
  result: 0.000108

====

settings: in ethanol, 278.15 K
readout: solubility (mole fraction)

- sample.smiles: "O=C(Nc1ccc(F)cc1F)c1cccnc1Oc1cccc(C(F)(F)F)c1"
  result: 0.000244

====

conditions: in propylene glycol, 278.15 K

- sample.smiles: "O=C(Nc1ccc(F)cc1F)c1cccnc1Oc1cccc(C(F)(F)F)c1"
  solubility (mole fraction): "4.63e-05"

====

conditions: in ethanol, 298.15 K
readout: solubility (mole fraction)

- sample.smiles: "O=C(Nc1ccc(F)cc1F)c1cccnc1Oc1cccc(C(F)(F)F)c1"
  result.number: 0.000683

====

conditions: in ethanol, 303.15 K
readout: solubility (mole fraction)

- sample.smiles: "O=C(Nc1ccc(F)cc1F)c1cccnc1Oc1cccc(C(F)(F)F)c1"
  result.number: 0.000901

====

conditions: in DMF, 278.15 K

- sample.smiles: "O=C(Nc1ccc(F)cc1F)c1cccnc1Oc1cccc(C(F)(F)F)c1"
  solubility (mole fraction): 0.000523

====

conditions: in propylene glycol, 303.15 K
readout: solubility (mole fraction)

- sample.smiles: "O=C(Nc1ccc(F)cc1F)c1cccnc1Oc1cccc(C(F)(F)F)c1"
  readout: "solubility (mole fraction)"
  result.number: 0.000129

====

details: in DMF, 308.15 K

- sample.smiles: "O=C(Nc1ccc(F)cc1F)c1cccnc1Oc1cccc(C(F)(F)F)c1"
  solubility (mole fraction): 0.00182

====

conditions: in propylene glycol, 308.15 K

- sample.smiles: "O=C(Nc1ccc(F)cc1F)c1cccnc1Oc1cccc(C(F)(F)F)c1"
  solubility (mole fraction): 0.000152

====

details: in water, 298.15 K

- sample.smiles: "O=C(Nc1ccc(F)cc1F)c1cccnc1Oc1cccc(C(F)(F)F)c1"
  solubility (mole fraction): "4.08e-07"

====

conditions: in propylene glycol, 323.15 K

- sample.smiles: "O=C(Nc1ccc(F)cc1F)c1cccnc1Oc1cccc(C(F)(F)F)c1"
  solubility (mole fraction): 0.000245

====

details: in DMF, 293.15 K

- sample.smiles: "O=C(Nc1ccc(F)cc1F)c1cccnc1Oc1cccc(C(F)(F)F)c1"
  solubility (mole fraction): 0.00104

====

settings: in water, 308.15 K
readout: solubility (mole fraction)

- sample.smiles: "O=C(Nc1ccc(F)cc1F)c1cccnc1Oc1cccc(C(F)(F)F)c1"
  result.number: "6.05e-07"

====

settings: in water, 318.15 K
readout: solubility (mole fraction)

- sample.smiles: "O=C(Nc1ccc(F)cc1F)c1cccnc1Oc1cccc(C(F)(F)F)c1"
  result.number: "8.72e-07"

====

settings: in DMF, 288.15 K

- sample.smiles: "O=C(Nc1ccc(F)cc1F)c1cccnc1Oc1cccc(C(F)(F)F)c1"
  solubility (mole fraction): 0.000847

====

settings: in propylene glycol, 313.15 K
readout: solubility (mole fraction)

- sample.smiles: "O=C(Nc1ccc(F)cc1F)c1cccnc1Oc1cccc(C(F)(F)F)c1"
  result.number: 0.00018

====

conditions: in ethylene glycol, 283.15 K

- sample.smiles: "O=C(Nc1ccc(F)cc1F)c1cccnc1Oc1cccc(C(F)(F)F)c1"
  solubility (mole fraction): "1.76e-05"

====

conditions: in propylene glycol, 318.15 K
readout: solubility (mole fraction)

- sample.smiles: "O=C(Nc1ccc(F)cc1F)c1cccnc1Oc1cccc(C(F)(F)F)c1"
  readout: "solubility (mole fraction)"
  result.number: 0.000209

====

conditions: in ethylene glycol, 313.15 K

- sample.smiles: "O=C(Nc1ccc(F)cc1F)c1cccnc1Oc1cccc(C(F)(F)F)c1"
  solubility (mole fraction): "5.41e-05"

====

settings: in DMF, 298.15 K

- sample.smiles: "O=C(Nc1ccc(F)cc1F)c1cccnc1Oc1cccc(C(F)(F)F)c1"
  solubility (mole fraction): 0.00127

====

conditions: in water, 303.15 K
readout: solubility (mole fraction)

- sample.smiles: "O=C(Nc1ccc(F)cc1F)c1cccnc1Oc1cccc(C(F)(F)F)c1"
  readout: "solubility (mole fraction)"
  result.number: "4.98e-07"

====

settings: in ethylene glycol, 318.15 K

- sample.smiles: "O=C(Nc1ccc(F)cc1F)c1cccnc1Oc1cccc(C(F)(F)F)c1"
  solubility (mole fraction): "6.34e-05"

====

conditions: in water, 278.15 K

- sample.smiles: "O=C(Nc1ccc(F)cc1F)c1cccnc1Oc1cccc(C(F)(F)F)c1"
  solubility (mole fraction): "1.45e-07"

====

details: in ethylene glycol, 308.15 K

- sample.smiles: "O=C(Nc1ccc(F)cc1F)c1cccnc1Oc1cccc(C(F)(F)F)c1"
  solubility (mole fraction): "4.62e-05"

====

settings: in water, 323.15 K
readout: solubility (mole fraction)

- sample.smiles: "O=C(Nc1ccc(F)cc1F)c1cccnc1Oc1cccc(C(F)(F)F)c1"
  readout: "solubility (mole fraction)"
  result.number: "1.04e-06"
